tested on: Ba/F3 ERBB2 YVMA; test: Cell viability assay (CellTiter Glo), Ba/F3 cells engineered to express ERBB2 YVMA; type: cell-based; conditions: Mus musculus, BaF3, 72 h, Ba/F3 cells expressing human ERBB2 YVMA mutant; 72 hours; cell viability, CellTiter Glo; read-out: Ba/F3 ERBB2 YVMA, IC50
pIC50: −log10 of the molar value.
Measurement label: pIC50

P: Cc1cc(Nc2ncnc3cc4c(nc23)N2CCN(C(=O)/C=C/[C@@H](C)N(C)C)[C@H](CO4)C2)c(F)cc1Oc1ccn2ncnc2c1
Q: Cc1cc(Nc2ncnc3cc4c(c(F)c23)N2CCN(C(=O)/C=C/CN(C)C)[C@H](CO4)C2)ccc1Oc1ccn2ncnc2c1
R: CN(C)C/C=C/C(=O)N1CCN2C[C@H]1COc1cc3ncnc(Nc4ccc(Oc5ccn6ncnc6c5)cc4F)c3nc12
S: Cc1cc(Nc2ncnc3cc4c(nc23)N2CCN(C(=O)/C=C/CN(C)C)CC(CO4)C2)ccc1Oc1ccn2ncnc2c1 (stereo not shown)
Hi! Can you put these in order of pIC50, lowest number first? Order the labels as requested and give them as your answer.
S, P, Q, R

1: CC#CC(=O)N1CCN2C[C@H]1COc1cc3ncnc(Nc4ccc(Oc5ccc6c(c5)ncn6C)c(C)c4)c3cc12
2: CC#CC(=O)N1CCN2C[C@H]1COc1cc3ncnc(Nc4ccc(Oc5ccc6c(c5)ncn6C)c(C)c4)c3nc12
3: Cc1cc(Nc2ncnc3cc4c(cc23)N2CCN(C(=O)/C=C/CN(C)C)[C@H](CO4)C2)ccc1Oc1ccn2ncnc2c1
4: Cc1ccc(Oc2ccc(Nc3ncnc4cc5c(nc34)N3CCN(C(=O)/C=C/CN(C)C)[C@H](CO5)C3)cc2C)cn1
Let's sort these by pIC50, smallest first. Go ahead? Answer format: list of labels, ordered as asked.
3, 1, 2, 4
(3: 7.07, 1: 7.42, 2: 7.85, 4: 8.28)

---

Target: phosphorylated ERBB2 (pERBB2) (Homo sapiens (Human), UniProt P04626)
Sequence (P04626 23-1255): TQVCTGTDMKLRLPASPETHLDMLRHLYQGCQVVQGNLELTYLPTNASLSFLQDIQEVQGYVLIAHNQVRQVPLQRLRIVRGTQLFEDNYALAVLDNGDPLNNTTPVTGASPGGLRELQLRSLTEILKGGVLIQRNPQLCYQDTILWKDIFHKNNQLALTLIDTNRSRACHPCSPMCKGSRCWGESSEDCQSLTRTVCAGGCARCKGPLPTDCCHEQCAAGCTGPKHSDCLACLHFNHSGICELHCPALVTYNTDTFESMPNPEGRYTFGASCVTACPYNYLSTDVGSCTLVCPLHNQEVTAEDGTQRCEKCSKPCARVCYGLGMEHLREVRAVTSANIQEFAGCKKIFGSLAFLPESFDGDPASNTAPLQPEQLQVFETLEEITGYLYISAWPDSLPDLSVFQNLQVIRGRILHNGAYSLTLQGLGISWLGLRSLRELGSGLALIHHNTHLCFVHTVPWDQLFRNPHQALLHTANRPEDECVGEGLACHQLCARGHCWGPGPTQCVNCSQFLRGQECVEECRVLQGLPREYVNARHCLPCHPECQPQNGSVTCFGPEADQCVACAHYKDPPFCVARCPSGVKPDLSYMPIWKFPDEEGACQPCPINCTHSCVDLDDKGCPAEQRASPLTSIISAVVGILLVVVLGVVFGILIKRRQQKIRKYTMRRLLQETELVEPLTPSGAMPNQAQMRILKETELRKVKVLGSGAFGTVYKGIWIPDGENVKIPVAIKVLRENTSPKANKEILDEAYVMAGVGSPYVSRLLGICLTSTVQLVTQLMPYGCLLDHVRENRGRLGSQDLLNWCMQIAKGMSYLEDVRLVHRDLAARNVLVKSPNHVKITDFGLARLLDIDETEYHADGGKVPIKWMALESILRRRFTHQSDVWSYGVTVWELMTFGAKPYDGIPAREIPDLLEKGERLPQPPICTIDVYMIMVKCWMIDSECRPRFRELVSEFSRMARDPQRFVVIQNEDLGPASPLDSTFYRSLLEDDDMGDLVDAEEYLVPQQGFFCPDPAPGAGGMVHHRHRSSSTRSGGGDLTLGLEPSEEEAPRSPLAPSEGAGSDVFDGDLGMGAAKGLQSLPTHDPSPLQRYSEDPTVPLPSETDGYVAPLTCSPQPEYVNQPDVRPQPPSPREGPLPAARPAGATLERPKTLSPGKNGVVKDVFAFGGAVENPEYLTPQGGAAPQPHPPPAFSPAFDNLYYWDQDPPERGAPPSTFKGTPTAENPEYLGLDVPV
Test: Detection of phosphorylated ERBB2 (pERBB2) by ELISA in BT-474 cells
Details: four hours incubation with compound
Method: BT-474 cells were seeded into a 96-well at 2.0*10^4 cells/100 μl/well. Compounds were dissolved and serially diluted in DMSO. The compounds were then were added, mixed, and incubated for four hours at 37° C., 5% CO2. […] Following the four hour incubation with compounds, cell lysates were prepared. Plates were centrifuged for 5 min at 3000 RPM, and supernatant was removed from each well. […] The remaining kinase activity by calculated using the following formula: % Relative activity=100×([…]). […]
Reported IC50 values follow for various compounds
Just the number please, in nM, no unit attached.

Here are 4 compounds together with their reported answers.
{"Compound": "[2H]C([2H])(/C=C/C(=O)N1CCN2C[C@H]1COc1cc3ncnc(Nc4cc(C)c(Oc5ccn6ncnc6c5)cc4F)c3nc12)N(C)C", "Experimental system": "phosphorylated ERBB2 (pERBB2) (Homo sapiens (Human), UniProt P04626)", "IC50 (nM)": 5.5}
{"Compound": "C=CC(=O)N1CCN2C[C@H]1COc1cc3ncnc(Nc4ccc(Cc5ccn6ncnc6c5)c(C)c4)c3nc12", "Experimental system": "phosphorylated ERBB2 (pERBB2) (Homo sapiens (Human), UniProt P04626)", "IC50 (nM)": 15.8}
{"Compound": "Cc1cc(Nc2ncnc3cc4c(nc23)N2CCCN(C(=O)/C=C/CN(C)C)C(CO4)C2)ccc1Oc1ccn2ncnc2c1 (racemic) [Compound 54]", "Experimental system": "phosphorylated ERBB2 (pERBB2) (Homo sapiens (Human), UniProt P04626)", "IC50 (nM)": 29.2}
{"Compound": "[2H]C([2H])([2H])N(C/C=C/C(=O)N1CCN2C[C@H]1COc1cc3ncnc(Nc4cc(C)c(Oc5ccn6ncnc6c5)cc4F)c3nc12)C([2H])([2H])[2H]", "Experimental system": "phosphorylated ERBB2 (pERBB2) (Homo sapiens (Human), UniProt P04626)", "IC50 (nM)": 6.84}

// next entry
Return reported IC50. Input compound: [2H]C([2H])([2H])N(C([2H])([2H])[2H])C([2H])([2H])/C=C/C(=O)N1CCN2C[C@H]1COc1cc3ncnc(Nc4cc(C)c(Oc5ccn6ncnc6c5)cc4F)c3nc12
9
